molecular target: Delta-type opioid receptor (Homo sapiens, UniProt P41143); assay: Agonist activity at human recombinant delta opioid receptor expressed in CHO cells by [35S]GTPgammaS binding assay; type: functional, cell-based
Sequence (P41143 whole entry): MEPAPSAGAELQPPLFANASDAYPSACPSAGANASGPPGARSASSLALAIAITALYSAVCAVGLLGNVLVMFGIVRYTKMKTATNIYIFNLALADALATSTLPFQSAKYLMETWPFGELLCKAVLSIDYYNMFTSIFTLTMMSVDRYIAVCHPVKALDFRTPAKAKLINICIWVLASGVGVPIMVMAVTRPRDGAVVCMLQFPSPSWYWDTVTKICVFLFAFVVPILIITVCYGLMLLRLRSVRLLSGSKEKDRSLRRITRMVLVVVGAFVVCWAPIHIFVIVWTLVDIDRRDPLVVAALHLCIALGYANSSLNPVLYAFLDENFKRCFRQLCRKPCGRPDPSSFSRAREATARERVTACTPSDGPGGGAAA
Measured Attribute: EC50 (nM)
Reply with just the number (in nM).

**Query** Look up EC50 for this compound: "CN1CC[C@]2(c3cccc(O)c3)Cc3nc4ccccc4cc3C[C@H]2C1"
**Result** 1.4

###

Measured Attribute: pKi
Scale note: pKi = -log10(concentration in M).

**Query** Query for Kappa-type opioid receptor (Cavia porcellus): what pKi does the record show for "Oc1ccc2c(c1)[C@]13CCN(CC4CC4)[C@H](C2)[C@@H]1Cc1cc2ccccc2nc1C3" ?
**Result** 9.44

**Query** Record "CC(C)CN1CC[C@]23Cc4nc5ccccc5cc4C[C@H]2[C@H]1Cc1ccc(O)cc13" : what is its pKi with Kappa-type opioid receptor (Cavia porcellus)?
**Result** 8.36

**Query** Look up pKi with Kappa-type opioid receptor (Cavia porcellus) for this compound: "CN1CC[C@]2(c3cccc(O)c3)Cc3nc4ccccc4cc3C[C@H]2C1"
Sequence (P41144 whole entry): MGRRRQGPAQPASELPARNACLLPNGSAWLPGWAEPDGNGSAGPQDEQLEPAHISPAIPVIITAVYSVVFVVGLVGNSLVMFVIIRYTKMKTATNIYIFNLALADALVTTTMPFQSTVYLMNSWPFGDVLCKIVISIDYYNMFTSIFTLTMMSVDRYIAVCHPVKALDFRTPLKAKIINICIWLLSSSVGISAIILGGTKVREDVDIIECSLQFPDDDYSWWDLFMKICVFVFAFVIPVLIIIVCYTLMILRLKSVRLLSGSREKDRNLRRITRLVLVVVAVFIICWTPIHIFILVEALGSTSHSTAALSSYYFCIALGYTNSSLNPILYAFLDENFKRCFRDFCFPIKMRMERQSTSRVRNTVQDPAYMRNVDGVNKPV
**Result** 6.14

**Query** Request - read-out pKi | tested on Kappa-type opioid receptor (Cavia porcellus) | compound "CN1CC[C@]23Cc4nc5ccccc5cc4C[C@H]2[C@H]1Cc1ccc(O)cc13"
**Result** 7.99
